Reference source for all entries: paper PMC9963398

Tested on: ACHN
measurement protocol: NCI-60 five-dose SRB assay
Format: cell-based
condition summary: Homo sapiens, Renal cancer, five-dose test
result type: GI50 (µM)
Answers are plain numbers, in µM.

As a guide, the following entries are already answered.
                                   compound  result_type  measured_result
0  CN1CCN(Cc2ccc(C(=O)Nc3cccc(Nc4ccc5cc(O)ccc5n4)c3)cc2C(F)(F)F)CC1 [Compound 18a]         GI50             7.59
1  CN1CCCN(Cc2ccc(C(=O)Nc3cccc(Nc4ccc5cc(O)ccc5n4)c3)cc2C(F)(F)F)CC1 [Compound 18b]         GI50             19.7

Lab note: each compound below needs its GI50 filled in.
1. COc1ccc2nc(Nc3cccc(NC(=O)c4ccc(CN5CCN(C)CC5)c(C(F)(F)F)c4)c3)ccc2c1 [Compound 16a]
2. COc1cccc2nc(Nc3cccc(NC(=O)c4ccc(CN5CCCN(C)CC5)c(C(F)(F)F)c4)c3)ccc12 [Compound 14b]
3. COc1cccc2nc(Nc3cccc(NC(=O)c4ccc(CN5CCN(C)CC5)c(C(F)(F)F)c4)c3)ccc12 [Compound 14a]

result:
1: 4.88; 2: 1.87; 3: 2.05

###

Tested on: SK-MEL-2
measurement protocol: NCI-60 five-dose SRB assay
Format: cell-based
condition summary: Homo sapiens; SK-MEL-2, Melanoma, five-dose test
So I've got a bunch of compounds here, and I need their GI50 values.
Give bare numbers, in µM.

                                   compound  experimental_system  measured_result
0  COc1cccc2nc(Nc3cccc(NC(=O)c4ccc(CN5CCCN(C)CC5)c(C(F)(F)F)c4)c3)ccc12 [Compound 14b]             SK-MEL-2             2.15
1  COc1cccc2nc(Nc3cccc(NC(=O)c4ccc(CN5CCN(C)CC5)c(C(F)(F)F)c4)c3)ccc12 [Compound 14a]             SK-MEL-2             3.52
2  CN1CCN(Cc2ccc(C(=O)Nc3cccc(Nc4ccc5c(O)cccc5n4)c3)cc2C(F)(F)F)CC1 [Compound 17a]             SK-MEL-2             1.92
3  CN1CCN(Cc2ccc(C(=O)Nc3cccc(Nc4ccc5cc(O)ccc5n4)c3)cc2C(F)(F)F)CC1 [Compound 18a]             SK-MEL-2             13.5
4  COc1cccc2nc(Nc3ccc(F)c(NC(=O)c4ccc(CN5CCN(C)CC5)c(C(F)(F)F)c4)c3)ccc12 [Compound 15a]             SK-MEL-2             16.1
5  COc1ccc2nc(Nc3cccc(NC(=O)c4ccc(CN5CCN(C)CC5)c(C(F)(F)F)c4)c3)ccc2c1 [Compound 16a]             SK-MEL-2             5.98
6  CN1CCCN(Cc2ccc(C(=O)Nc3cccc(Nc4ccc5cc(O)ccc5n4)c3)cc2C(F)(F)F)CC1 [Compound 18b]             SK-MEL-2             17.2
7  CN1CCCN(Cc2ccc(C(=O)Nc3cccc(Nc4ccc5c(O)cccc5n4)c3)cc2C(F)(F)F)CC1 [Compound 17b]             SK-MEL-2             1.81

Let us move to another entry and its GI50.
query: Dear colleague, please send me the reported GI50 for CCN1CCN(Cc2ccc(C(=O)Nc3cccc(Nc4ccc5c(OC)cccc5n4)c3)cc2C(F)(F)F)CC1 [Compound 14c] when you can.
result: 10.7
